Reference source: PubChem BioAssay AID1845210

Tested on: NCI-H226 complex tumor spheroids, viability
Test: Anticancer human tumor NCI-H226 cell line growth inhibition; active means viability on the fitted dose curve at most 10% of control; inactive means the rest;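 further: spheroids exposed to compound for 7 days; 100% = DMSO vehicle control viability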
Settings: second compound 10 µM; first compound 3 µM
Outcome codes: true (1) (active), false (0) (inactive)

# compound, measuredOn, qualitativeLabel
measured = [
    ("Cn1ncnc1[C@H]1c2n[nH]c(=O)c3cc(F)cc(c23)N[C@@H]1c1ccc(F)cc1 + Cn1nnc2c(C(N)=O)ncn2c1=O", "NCI-H226 complex tumor spheroids, viability", "false (0)"),
    ("CNCc1ccc(-c2cc(-c3nc(-c4ccc(S(=O)(=O)C(C)C)cc4)cnc3N)on2)cc1 + Cn1nnc2c(C(N)=O)ncn2c1=O", "NCI-H226 complex tumor spheroids, viability", "true (1)"),
    ("O=C(c1cc(Cc2n[nH]c(=O)c3ccccc23)ccc1F)N1CCN(C(=O)C2CC2)CC1 + Cn1nnc2c(C(N)=O)ncn2c1=O", "NCI-H226 complex tumor spheroids, viability", "false (0)"),
    ("Cc1sc2c(c1C)C(c1ccc(Cl)cc1)=NC(CC(=O)Nc1ccc(O)cc1)c1nnc(C)n1-2 (centres undefined) + Cn1nnc2c(C(N)=O)ncn2c1=O", "NCI-H226 complex tumor spheroids, viability", "false (0)"),
]
